# tested.on: α-glycosidase
# method.description: α-Glycosidase inhibition (p-NPG substrate)
# Format: biochemical
# condition.label: read-out: IC50 (nM) α-Gly
reported.property: IC50 (nM)
One number for each entry, in nM.

stdin: Read the entry O=c1oc2cc(O)ccc2c2oc3cc(O)ccc3c12 [Coumestrol] and write its reported IC50.
stdout: 27.5

---

# tested.on: butyrylcholinesterase (BChE) (Equus caballus)
# Sequence (P81908 whole entry): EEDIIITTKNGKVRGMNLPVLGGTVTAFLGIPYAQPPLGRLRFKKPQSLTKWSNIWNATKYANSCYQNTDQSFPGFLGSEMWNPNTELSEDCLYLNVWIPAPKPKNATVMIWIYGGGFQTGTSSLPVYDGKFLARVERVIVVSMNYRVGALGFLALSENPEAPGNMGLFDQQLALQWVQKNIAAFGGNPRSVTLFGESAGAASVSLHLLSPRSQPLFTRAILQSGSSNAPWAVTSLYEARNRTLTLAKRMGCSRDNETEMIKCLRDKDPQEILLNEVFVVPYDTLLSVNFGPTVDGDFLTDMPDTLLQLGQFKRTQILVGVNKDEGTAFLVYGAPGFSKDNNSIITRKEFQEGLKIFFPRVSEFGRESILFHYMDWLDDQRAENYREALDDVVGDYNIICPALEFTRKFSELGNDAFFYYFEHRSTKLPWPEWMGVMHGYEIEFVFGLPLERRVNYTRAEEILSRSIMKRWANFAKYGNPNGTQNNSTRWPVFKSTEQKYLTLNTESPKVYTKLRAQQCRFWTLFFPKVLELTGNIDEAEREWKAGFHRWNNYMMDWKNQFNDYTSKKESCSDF
# method.description: biochemical
reported.property: IC50 (nM)
One number for each entry, in nM.

stdin: Please supply the value of reported IC50 for the item O=c1oc2cc(O)ccc2c2oc3cc(O)ccc3c12 [Coumestrol]
stdout: 18.2
